- Experiment notes: Cytotoxicity against human WI38 cells assessed as growth inhibition after 4 days by cell-titer-Glo assay
- Format: cell-based, WI-38
- Run conditions: WI-38 cells
Endpoint label: GI50 at 96 h

The reported GI50 at 96 h of the compound "Oc1cc(-c2ccccc2)nn1-c1ccccc1" was > 30 µM

# compound "Oc1cc(-c2ccccc2)nn1-c1ccc(Cl)cn1" ; its GI50 at 96 h = 19 µM

Value of measured GI50 at 96 h for the entry "COc1ccc(-n2nc(-c3ccccc3)cc2O)nc1" : 25.4 µM

Entry "Oc1cc(-c2ccccc2)nn1-c1ccncc1" — recorded GI50 at 96 h = > 30 µM

In plain terms, "Oc1cc(-c2ccccc2)nn1-c1ccc(C(F)(F)F)cn1" has a documented GI50 at 96 h of 9.4 µM
